# testedOn: T1, human CLDN9 (human, UniProt O95484 1-217)
# T1 construct: It was expressed on 293T cells from human CLDN9/pCMV6-Entry bought from OriGene; also called claudin-9
# T1 sequence: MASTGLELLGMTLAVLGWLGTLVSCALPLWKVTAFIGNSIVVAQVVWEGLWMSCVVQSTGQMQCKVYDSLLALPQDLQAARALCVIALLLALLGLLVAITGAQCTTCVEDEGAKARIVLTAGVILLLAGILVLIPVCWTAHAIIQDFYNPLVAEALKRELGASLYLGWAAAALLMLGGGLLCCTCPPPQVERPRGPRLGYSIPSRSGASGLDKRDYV
# measurementNotes: flow cytometry on 293T cells transiently transfected with human CLDN9

{"binder": "humanized anti-CLDN6 antibody H2L4 (antibody, human IgG1, kappa, L234A L235A, V domains shown, Human IgG1 LALA constant region and human kappa light chain; also called H2L4 antibody) VH: EVQLVQSGAEVKKPGASVKVSCKTSGYTFTEYTMHWVRQAPGKSLEWMGGVNPNSGDTSYAQKFQGRVTITADTSTSTAYMELSSLRSEDTAVYYCARPGGYDVGYYAMDYWGQGTLVTVSS VL: DIQMTQSPSSLSASVGDRVTITCRASQDINNYLNWYQQKPGGAVKLLIYFTSRLHSGVPSRFSGSGSGTDYTLTISSLQPEDFATYYCQQGNTLPWTFGGGTKVEIKR", "binding result": "binds"}
{"binder": "humanized anti-CLDN6 antibody H1L1 (antibody, human IgG1, kappa, L234A L235A, V domains shown, Heavy chain hH1 with light chain hL1; Human IgG1 LALA constant region and human kappa light chain; also called H1L1 antibody) VH: QVQLVQSGAEVKKPGASVKVSCKASGYTFTEYTMHWVRQAPGQGLEWMGGVNPNSGDTSYAQKFQGRVTITADTSTSTAYMELSSLRSEDTAVYYCARPGGYDVGYYAMDYWGQGTLVTVSS VL: DIQMTQSPSSLSASVGDRVTITCRASQDINNYLNWYQQKPGKAPKLLIYFTSRLHSGVPSRFSGSGSGTDYTLTISSLQPEDFATYYCQQGYPLPWTFGQGTKVEIKR", "binding result": "binds"}
{"binder": "humanized anti-CLDN6 antibody H2L2 (antibody, human IgG1, kappa, L234A L235A, V domains shown, Heavy chain hH2 with light chain hL2; Human IgG1 LALA constant region and human kappa light chain; also called H2L2 antibody) VH: EVQLVQSGAEVKKPGASVKVSCKTSGYTFTEYTMHWVRQAPGKSLEWMGGVNPNSGDTSYAQKFQGRVTITADTSTSTAYMELSSLRSEDTAVYYCARPGGYDVGYYAMDYWGQGTLVTVSS VL: DIQMTQSPSSLSASVGDRVTITCRASQDINNYLNWYQQKPGKAVKLLIYFTSRLHSGVPSRFSGSGSGTHYTLTISSLQPEDFATYYCQQGYPLPWTFGQGTKVEIKR", "binding result": "binds"}

FYI, the data here is from patent US20220395579A1.
